- Assay system: ΔCTD_Reg1 (human Regnase-1 amino acids 1 to 546, FLAG tag on the N-terminal side, BirA recognition sequence … (human))
- Sequence (Q5D1E8 1-546, stated change not applied): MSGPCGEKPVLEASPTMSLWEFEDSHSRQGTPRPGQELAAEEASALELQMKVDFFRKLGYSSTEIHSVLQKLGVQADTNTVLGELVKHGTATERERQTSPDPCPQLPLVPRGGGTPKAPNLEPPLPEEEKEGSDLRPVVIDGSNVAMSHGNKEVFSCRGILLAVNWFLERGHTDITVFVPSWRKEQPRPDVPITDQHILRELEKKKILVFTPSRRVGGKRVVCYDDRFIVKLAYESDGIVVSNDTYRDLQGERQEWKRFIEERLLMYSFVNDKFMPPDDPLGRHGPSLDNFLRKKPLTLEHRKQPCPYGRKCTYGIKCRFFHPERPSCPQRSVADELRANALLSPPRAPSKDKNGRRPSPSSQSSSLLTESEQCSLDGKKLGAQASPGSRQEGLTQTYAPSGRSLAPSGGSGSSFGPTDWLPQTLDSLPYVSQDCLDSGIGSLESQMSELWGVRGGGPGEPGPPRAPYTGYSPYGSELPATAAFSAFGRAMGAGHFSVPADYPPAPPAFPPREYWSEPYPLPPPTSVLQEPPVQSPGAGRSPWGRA
- Assay notes: cell-based or functional assay
Positions of bridges follow the written chain, without caps; N, C: chain ends. Non-standard residues stand in square brackets, D forms with d. No end group written: not given here. NMeA = CN[C@@H](C)C(=O)O; dNMeA = CN[C@H](C)C(=O)O
Observable: IC50, phosphorylation by IKKβ (µM)

[P] [NMeA]NFSNSWYNIWD (lactam N-12) [PP16]
[Q] [NMeA]NYQSWYYRSIWD (lactam N-13) [PP10]
[R] [NMeA]DIWFDYWDWD (lactam N-11) [PP17]
[S] [NMeA]GYANSWYNIWD (lactam N-12) [PP2]
[T] [dNMeA]EDTPEDDHD (lactam N-10) [PP25]
In: Which order do the items above take when sorted by IC50, phosphorylation by IKKβ from high to low? Use the labels to give the ranking in the order requested.
Out: T, P, S, Q, R
(T: 47.7 µM, P: 30.8 µM, S: 14 µM, Q: 2.6 µM, R: 0.3 µM)
